# Study Target: G6sec2 (Homo sapiens, UniProt Q9BYG0)
# Construct: made in house; host or cells: Sf21 insect cells infected with pVL1393-F2G6sec2-derived recombinant baculovirus
# Sequence (Q9BYG0 39-378): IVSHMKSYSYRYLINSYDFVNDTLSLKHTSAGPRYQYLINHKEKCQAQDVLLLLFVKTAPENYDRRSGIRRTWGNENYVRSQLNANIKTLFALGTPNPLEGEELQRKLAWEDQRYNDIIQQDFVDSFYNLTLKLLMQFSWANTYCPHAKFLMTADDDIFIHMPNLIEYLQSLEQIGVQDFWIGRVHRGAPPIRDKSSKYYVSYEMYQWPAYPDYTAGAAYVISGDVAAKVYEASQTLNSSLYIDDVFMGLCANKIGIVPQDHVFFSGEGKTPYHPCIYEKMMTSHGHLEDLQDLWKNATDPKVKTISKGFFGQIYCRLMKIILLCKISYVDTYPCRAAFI
# Test Details: β1,3-N-acetylglucosaminyltransferase activity using pyridylaminated oligosaccharides as substrates
# Format: biochemical
# Conditions Used: pyridylaminated oligosaccharides 50 μmol/l, 37° C., 14.5 hours, LNnT defined as 100%
Measured Attribute: Relative activity (%)

(a) CC(=O)N[C@H]1[C@H](O[C@H]2[C@@H](O)[C@@H](CO)O[C@@H](O[C@H]3[C@H](O)[C@@H](O)C(O)O[C@@H]3CO)[C@@H]2O)O[C@H](CO)[C@@H](O[C@@H]2O[C@H](CO)[C@H](O)[C@H](O)[C@H]2O)[C@@H]1O (mixture of isomers)
(b) CC(=O)N[C@H]1[C@H](O[C@H]2[C@@H](O)[C@@H](CO)O[C@@H](O[C@H]3[C@H](O)[C@@H](O)C(O)O[C@@H]3CO)[C@@H]2O)O[C@H](CO)[C@@H](O)[C@@H]1O[C@@H]1O[C@H](CO)[C@H](O)[C@H](O)[C@H]1O (stereo partly shown)
Data request: Would you let me know which has the greater Relative activity (%) value, a or b ? // respond with label for picked entry
Data returned: a
(a: 100%, b: 5.5%)

These measurements were taken from patent US7629150B2.
